target-entity: UniProt P0DTD1
test-summary: biochemical
Assay type: biochemical
measurement-context: 4 h, sheet LOPAC_screen_w_protease; LOPAC1280 primary screen at 5 µM, with protease; replicate 1; read-out: Replicate_1
Counter-ions that a name gives are not always drawn.
measured-metric: inhibition at 5 µM

Solved entries:
{"compound": "C/C=C(/C)C(=O)O[C@H]1C(C)=C2[C@H]([C@@H]1OC(=O)CCCCCCC)[C@@](C)(OC(C)=O)C[C@H](OC(=O)CCC)[C@@]1(O)[C@H]2OC(=O)[C@@]1(C)O", "target-entity": "UniProt P0DTD1", "val": "2.46%"}
{"compound": "O=C1NCN(c2ccccc2)C12CCN(CC1COc3ccccc3O1)CC2 (centres unmarked)", "target-entity": "UniProt P0DTD1", "val": "1.86%"}
{"compound": "Nc1nc(O)c2ncn(COC(CO)CO)c2n1", "target-entity": "UniProt P0DTD1", "val": "1%"}

Your task in this section: give inhibition at 5 µM for each listed record.
1. Nc1c(S(=O)(=O)O)cc(Nc2ccc(Nc3nc(Cl)nc(Nc4cccc(S(=O)(=O)O)c4)n3)c(S(=O)(=O)O)c2)c2c1C(=O)c1ccccc1C2=O
2. CC(C)CN(C)c1nc(N)c(C(=O)N=C(N)N)nc1Cl [5-(N-Methyl-N-isobutyl)amiloride]
3. NS(=O)(=O)Cc1noc2ccccc12 [Zonisamide sodium]
4. COc1ccc(C(=O)NCc2cccnc2)cc1C(=O)NCc1cccnc1 [Picotamide]
5. CC(=O)NCCc1c[nH]c2ccccc12

a:
1. -0.139%
2. 0.238%
3. -0.00469%
4. 1.7%
5. 1.07%

State the recorded inhibition at 5 µM for every item in the following list.
1. CN1CCc2cccc(Cl)c2CC1
2. O=c1c2ccccc2[nH]c(=S)n1CCN1CCC(=C(c2ccc(F)cc2)c2ccc(F)cc2)CC1
3. O=C(O)CP(=O)(O)O
4. CNCCC(Oc1ccc(C(F)(F)F)cc1)c1ccccc1 (centres unmarked) [Fluoxetine hydrochloride]
5. O=C(O)CCCCCCCC(=O)O
6. O=c1c2ccccc2nc2n1CCc1c-2[nH]c2ccccc12
7. CCc1cccc2c3c([nH]c12)C(CC)(CC(=O)O)OCC3 (centres unmarked)
8. O=C(O)c1cccnc1C(=O)O

a:
["0.136%", "-4.63%", "0.755%", "2.07%", "1.56%", "1.54%", "1.48%", "-0.228%"]
